System: IGROV1 ovarian
Assay: NCI tumour cell line growth inhibition, 48 h; in the data active = GI50 below about 0.43 µM; inactive = the rest
Outcome codes: T (active), F (inactive)

compound	assigned class
COC(=O)[C@]12CC[C@@H](C)[C@H](C)[C@@H]1C1=CC[C@@H]3[C@@]4(C)C(C=O)=C[C@@](C)(COC(C)=O)[C@@H]4[C@H](O)C[C@@]3(C)[C@]1(C)CC2	F
COc1cc2c3c(n(CCN)c(=O)c2cc1OC)-c1cc2c(cc1C3=O)OCO2	F
C=C1C(=O)O[C@H]2[C@H]1CC/C(COC(=O)C(=O)c1c[nH]c3ccc(OC)cc13)=C\CC[C@@]1(C)O[C@@H]21	F
C=C(CN1CCN(c2cccc(C(F)(F)F)c2)CC1)c1ccc(C(=O)Nc2ccccc2N)cc1	F
COc1ccc2nc(NCCCNCCO)c3sc4ccc(F)cc4c(=O)c3c2c1	F
CCC(=O)OC1CCn2c1nc1c2C(=O)C(C)=C(N2CC2)C1=O (stereo not drawn)	T
O=C(Nc1cnn2ccc(N3CCC[C@@H]3c3cc(F)ccc3F)nc12)N1CC[C@H](O)C1	F
CCC(C(=O)[O-])C(=O)[O-].CCC(C(=O)[O-])C(=O)[O-].N.N.NCCCCCN.[Pt+4].[Pt+4]	F
